- procedure summary: pyruvate reductase activity, NADH absorption at 340 nm
- Assay type: biochemical
- experimental setup: natural substrate of Ldh: pyruvate; purified enzyme, 37° C., pH 7
experimental endpoint: Max. specific activity, natural substrate (µmol/mg/min)
Use µmol/mg/min as the unit, but write only the number.

Note Max. specific activity, natural substrate for the molecule shown: Bs-Ldh: (L)-lactate dehydrogenase of Bacillus subtilis, SEQ ID NO: 8 (protein, listed as Bacillus subtilis) MMNKHVNKVALIGAGFVGSSYAFALINQGITDELVVIDVNKEKAMGDVMDLNHGKAFAPQPVKTSYGTYEDCKDADIVCICAGANQKPGETRLELVEKNLKIFKGIVSEVMASGFDGIFLVATNPVDILTYATWKFSGLPKERVIGSGTTLDSARFRFMLSEYFGAAPQNVHAHIIGEHGDTELPVWSHANVGGVPVSELVEKNDAYKQEELDQIVDDVKNAAYHIIEKKGATYYGVAMSLARITKAILHNENSILTVSTYLDGQYGADDVYIGVPAVVNRGGIAGITELNLNEKEKEQFLHSAGVLKNILKPHFAEQKVN
170

The reported numbers originate from patent US11505811B2.
